assay: Elimination half life in dog at 26.5 mg/kg, po; assay type: ADME, organism-based, Canis lupus familiaris; parameters: dose 26.5 mg/kg, route oral; settings: in vivo, read-out: beta t1/2
MEASURED PARAMETER: half-life

CCc1nn2c(=O)cc(N3CCNCC3)nc2s1	2.45 h

---

test: Elimination half life in dog at 53 mg/kg, po; type: ADME, organism-based, Canis lupus familiaris; parameters: dose 53 mg/kg, route oral; conditions: in vivo, read-out: beta t1/2
MEASURED PARAMETER: half-life (h)

CCc1nn2c(=O)cc(N3CCNCC3)nc2s1	1.82

---

assay: Cmax in dog at 26.5 mg/kg, po; type: ADME, organism-based, Canis lupus familiaris; set-up: dose 26.5 mg/kg, route oral; conditions: in vivo
MEASURED PARAMETER: Cmax (ng/mL)

CCc1nn2c(=O)cc(N3CCNCC3)nc2s1	7800

---

test: Tmax in dog at 26.5 mg/kg, po; assay type: ADME, organism-based, Canis lupus familiaris; design: dose 26.5 mg/kg, route oral; conditions: in vivo
MEASURED PARAMETER: Tmax (min)

CCc1nn2c(=O)cc(N3CCNCC3)nc2s1	33.3

---

experiment: Tmax in dog at 26.5 mg/kg, iv; assay type: ADME, organism-based, Canis lupus familiaris; design: dose 26.5 mg/kg, route intravenous; conditions: in vivo
MEASURED PARAMETER: Tmax (min)

CCc1nn2c(=O)cc(N3CCNCC3)nc2s1	10.5

---

Collected inhibition at 25 µM values appear next to each entry.
biological target: hERG (KCNH2) (Homo sapiens, UniProt Q12809); test: Inhibition of human ERG channel at 25 uM
Sequence (Q12809 whole entry): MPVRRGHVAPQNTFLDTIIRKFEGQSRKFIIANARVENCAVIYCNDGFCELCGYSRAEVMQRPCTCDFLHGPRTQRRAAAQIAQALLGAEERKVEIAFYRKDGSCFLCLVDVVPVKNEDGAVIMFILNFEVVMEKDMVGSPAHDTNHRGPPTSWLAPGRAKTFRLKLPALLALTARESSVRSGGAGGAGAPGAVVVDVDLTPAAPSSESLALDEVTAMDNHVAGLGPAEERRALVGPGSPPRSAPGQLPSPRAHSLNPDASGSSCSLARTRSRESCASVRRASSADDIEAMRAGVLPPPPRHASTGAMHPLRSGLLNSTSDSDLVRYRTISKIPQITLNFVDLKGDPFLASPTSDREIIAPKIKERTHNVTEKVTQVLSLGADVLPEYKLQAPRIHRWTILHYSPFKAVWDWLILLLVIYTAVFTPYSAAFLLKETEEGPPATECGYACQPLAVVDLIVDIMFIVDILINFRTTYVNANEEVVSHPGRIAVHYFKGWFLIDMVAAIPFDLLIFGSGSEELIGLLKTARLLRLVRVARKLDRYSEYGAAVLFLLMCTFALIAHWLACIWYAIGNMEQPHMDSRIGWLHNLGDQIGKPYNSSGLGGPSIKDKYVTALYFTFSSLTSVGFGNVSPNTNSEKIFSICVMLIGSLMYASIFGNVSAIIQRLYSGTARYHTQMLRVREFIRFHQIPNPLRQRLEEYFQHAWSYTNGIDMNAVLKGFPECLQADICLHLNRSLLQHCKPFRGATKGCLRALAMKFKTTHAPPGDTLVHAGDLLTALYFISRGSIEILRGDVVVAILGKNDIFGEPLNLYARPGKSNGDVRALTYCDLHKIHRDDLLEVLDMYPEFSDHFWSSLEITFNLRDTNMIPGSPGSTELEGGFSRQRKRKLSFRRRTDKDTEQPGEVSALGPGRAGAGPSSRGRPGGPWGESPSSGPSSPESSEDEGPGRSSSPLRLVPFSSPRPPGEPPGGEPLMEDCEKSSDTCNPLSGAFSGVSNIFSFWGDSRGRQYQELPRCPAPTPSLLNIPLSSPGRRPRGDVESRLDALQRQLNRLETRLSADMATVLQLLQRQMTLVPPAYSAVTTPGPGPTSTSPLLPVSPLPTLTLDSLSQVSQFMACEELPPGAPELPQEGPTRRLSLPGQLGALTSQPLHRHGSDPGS
MEASURED PARAMETER: inhibition at 25 µM

NCC(=O)Nc1cccc(-c2nn3c(=O)cc(N4CCNCC4)nc3s2)c1	< 5%
NCC(=O)Nc1cncc(-c2nn3c(=O)cc(N4CCNCC4)nc3s2)c1 [ZALUNFIBAN]	< 5%

---

experiment: AUC (infinity) in dog at 26.5 mg/kg, po; type: ADME, organism-based, Canis lupus familiaris; parameters: time infinity, dose 26.5 mg/kg, route oral; settings: plasma
MEASURED PARAMETER: AUC(0-inf) (ng·h/mL)

CCc1nn2c(=O)cc(N3CCNCC3)nc2s1	27200

---

experiment: Oral bioavailability in dog at 26.5 to 53 mg/kg; assay type: ADME, organism-based, Canis lupus familiaris; details: in vivo
MEASURED PARAMETER: bioavailability (%)

CCc1nn2c(=O)cc(N3CCNCC3)nc2s1	92

---

Recorded inhibition for the following compounds
target: Integrin alpha-IIb/beta-3 (Homo sapiens) (UniProt P05106+P08514); assay: Inhibition of […] receptor (unknown origin) assessed as inhibition of platelet adhesion at 1 uM
MEASURED PARAMETER: inhibition (%)

NCC(=O)Nc1cc(O)cc(-c2nn3c(=O)cc(N4CCNCC4)nc3s2)c1	69
NCC(=O)Nc1cc(-c2nn3c(=O)cc(N4CCNCC4)nc3s2)ccn1	98
NCC(=O)Nc1cncc(-c2nn3c(=O)cc(N4CCNCC4)nc3s2)c1	93
NCC(=O)Nc1cccc(-c2nn3c(=O)cc(N4CCNCC4)nc3s2)c1	83
NCC(=O)Nc1cc(CO)cc(-c2nn3c(=O)cc(N4CCNCC4)nc3s2)c1	89

The values you see were collected from ChEMBL document CHEMBL3112409.
